- Measured Target: T1, 4H3175-bH
- T1 chain: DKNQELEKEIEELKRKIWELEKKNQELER
- Test Summary: two-hybrid library CCNG1;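 also: natural log of median RNA to DNA barcode read ratio; higher means stronger binding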
Reported Metric: interaction score

>  <Binder>
DENQELKKEIEELEREIWELEKKNQELKR [4H1544-bH]

>  <interaction score>
-0.419

$$$$
>  <Binder>
DKNQELEKEIEELKRKIWELEKKNQELER [4H3175-bH]

>  <interaction score>
0.103

$$$$
>  <Binder>
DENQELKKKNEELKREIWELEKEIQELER [4H1985-bH]

>  <interaction score>
-0.853

$$$$
>  <Binder>
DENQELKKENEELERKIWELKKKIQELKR [4H1710-bH]

>  <interaction score>
0.0594

$$$$
>  <Binder>
DKNQELEKEIEELKRENWELKKEIQELKR [4H3162-bH]

>  <interaction score>
-1.88

$$$$
>  <Binder>
DENQELEKKIEELKREIWELEKENQELKR [4H1348-bH]

>  <interaction score>
0.435

$$$$
>  <Binder>
DENQELKKKIEELKRKIWELKKENQELER [4H1899-bH]

>  <interaction score>
0.0491

$$$$
>  <Binder>
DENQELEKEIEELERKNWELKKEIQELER [4H1081-bH]

>  <interaction score>
-0.0753

$$$$

Please turn your attention to the following entry.
IN: Item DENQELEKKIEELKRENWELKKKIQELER [4H1373-bH] has what recorded interaction score?
OUT: 0.281
